Values were extracted from ChEMBL document CHEMBL3352617.

# PROTOCOL: Half life in human hepatocytes at 2 uM by LCMS analysis
# Assay type: ADME, cell-based, Hepatocyte
OBSERVATION TYPE: half-life at 2 µM (min)
Provide only the numeric value, understood in min.

Look up and state reported half-life at 2 µM for Cc1cc([C@@H](C)Nc2ccccc2C(=O)O)c2nc(N3CCOCC3)cc(=O)n2c1
40

----------
# PROTOCOL: Apparent permeability across apical to basolateral side of human Caco2 cells at 10 uM at pH 6.5 by LC-tandem MS analysis
# Assay type: ADME, cell-based
# MEASUREMENT SETUP: Caco-2, pH 6.5
OBSERVATION TYPE: Papp A→B at 10 µM (×10⁻⁶ cm/s)

1: Cc1cc([C@@H](C)Nc2ccccc2C(=O)NS(C)(=O)=O)c2nc(N3CCOCC3)cc(=O)n2c1
2: Cc1cc(C(C)Nc2ccccc2)c2nc(N3CCOCC3)cc(=O)n2c1 (racemic)
3: CC(Nc1ccccc1)c1cc(C(=O)N(C)CC(=O)O)cn2c(=O)cc(N3CCOCC3)nc12 (racemic)
4: Cc1cc([C@@H](C)Nc2ccccc2C(=O)O)c2nc(N3CCOCC3)cc(=O)n2c1
Your job: order these 4 records by Papp A→B at 10 µM, ascending. Enter labels, ranked according to the request.
1, 3, 4, 2
(1: 0.11 ×10⁻⁶ cm/s, 3: 1 ×10⁻⁶ cm/s, 4: 18 ×10⁻⁶ cm/s, 2: 66 ×10⁻⁶ cm/s)

----------
# TARGET: Phosphatidylinositol 4,5-bisphosphate 3-kinase catalytic subunit gamma isoform (Homo sapiens, UniProt P48736)
# Sequence (P48736 whole entry, canonical isoform): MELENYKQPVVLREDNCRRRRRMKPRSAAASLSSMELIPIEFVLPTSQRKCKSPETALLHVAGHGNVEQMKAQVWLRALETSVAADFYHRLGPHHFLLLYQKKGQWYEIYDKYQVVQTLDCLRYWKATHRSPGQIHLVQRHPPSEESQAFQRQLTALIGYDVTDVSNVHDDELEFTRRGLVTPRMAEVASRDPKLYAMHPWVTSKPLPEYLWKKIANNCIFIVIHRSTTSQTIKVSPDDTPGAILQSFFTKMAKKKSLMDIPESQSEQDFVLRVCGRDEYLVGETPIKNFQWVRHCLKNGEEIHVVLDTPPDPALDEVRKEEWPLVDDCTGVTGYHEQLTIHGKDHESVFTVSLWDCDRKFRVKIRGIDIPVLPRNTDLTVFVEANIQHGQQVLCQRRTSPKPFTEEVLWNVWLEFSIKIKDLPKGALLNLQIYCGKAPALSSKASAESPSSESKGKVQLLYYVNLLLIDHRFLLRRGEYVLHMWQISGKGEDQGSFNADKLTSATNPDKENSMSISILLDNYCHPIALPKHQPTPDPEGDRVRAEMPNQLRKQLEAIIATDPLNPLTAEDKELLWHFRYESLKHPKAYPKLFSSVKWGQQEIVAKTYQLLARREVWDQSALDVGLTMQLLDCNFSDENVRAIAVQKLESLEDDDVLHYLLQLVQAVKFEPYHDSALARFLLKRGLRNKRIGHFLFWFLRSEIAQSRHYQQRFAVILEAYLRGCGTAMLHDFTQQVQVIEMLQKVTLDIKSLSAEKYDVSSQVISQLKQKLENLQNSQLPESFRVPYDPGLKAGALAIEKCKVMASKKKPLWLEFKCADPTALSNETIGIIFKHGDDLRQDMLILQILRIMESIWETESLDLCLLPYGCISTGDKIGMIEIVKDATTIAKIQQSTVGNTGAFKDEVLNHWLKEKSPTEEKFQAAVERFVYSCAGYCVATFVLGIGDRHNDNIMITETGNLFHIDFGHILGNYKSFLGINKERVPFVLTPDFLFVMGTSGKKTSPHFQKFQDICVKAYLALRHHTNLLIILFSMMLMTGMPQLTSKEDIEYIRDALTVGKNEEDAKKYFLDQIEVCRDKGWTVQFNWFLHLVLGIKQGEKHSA
# PROTOCOL: Inhibition of human recombinant PI3Kgamma assessed as PIP3 production by AlphaScreen assay
OBSERVATION TYPE: pIC50
To interpret pIC50, take it as minus log10 of a concentration measured in moles per litre.

Look up and state reported pIC50 for C[C@@H](Oc1ccccc1)c1cc(C(=O)N(C)CCO)cn2c(=O)cc(N3CCOCC3)nc12
4.08

----------
# TARGET: Phosphatidylinositol 4,5-bisphosphate 3-kinase catalytic subunit alpha isoform (Homo sapiens, UniProt P42336)
# Sequence (P42336 whole entry, canonical isoform): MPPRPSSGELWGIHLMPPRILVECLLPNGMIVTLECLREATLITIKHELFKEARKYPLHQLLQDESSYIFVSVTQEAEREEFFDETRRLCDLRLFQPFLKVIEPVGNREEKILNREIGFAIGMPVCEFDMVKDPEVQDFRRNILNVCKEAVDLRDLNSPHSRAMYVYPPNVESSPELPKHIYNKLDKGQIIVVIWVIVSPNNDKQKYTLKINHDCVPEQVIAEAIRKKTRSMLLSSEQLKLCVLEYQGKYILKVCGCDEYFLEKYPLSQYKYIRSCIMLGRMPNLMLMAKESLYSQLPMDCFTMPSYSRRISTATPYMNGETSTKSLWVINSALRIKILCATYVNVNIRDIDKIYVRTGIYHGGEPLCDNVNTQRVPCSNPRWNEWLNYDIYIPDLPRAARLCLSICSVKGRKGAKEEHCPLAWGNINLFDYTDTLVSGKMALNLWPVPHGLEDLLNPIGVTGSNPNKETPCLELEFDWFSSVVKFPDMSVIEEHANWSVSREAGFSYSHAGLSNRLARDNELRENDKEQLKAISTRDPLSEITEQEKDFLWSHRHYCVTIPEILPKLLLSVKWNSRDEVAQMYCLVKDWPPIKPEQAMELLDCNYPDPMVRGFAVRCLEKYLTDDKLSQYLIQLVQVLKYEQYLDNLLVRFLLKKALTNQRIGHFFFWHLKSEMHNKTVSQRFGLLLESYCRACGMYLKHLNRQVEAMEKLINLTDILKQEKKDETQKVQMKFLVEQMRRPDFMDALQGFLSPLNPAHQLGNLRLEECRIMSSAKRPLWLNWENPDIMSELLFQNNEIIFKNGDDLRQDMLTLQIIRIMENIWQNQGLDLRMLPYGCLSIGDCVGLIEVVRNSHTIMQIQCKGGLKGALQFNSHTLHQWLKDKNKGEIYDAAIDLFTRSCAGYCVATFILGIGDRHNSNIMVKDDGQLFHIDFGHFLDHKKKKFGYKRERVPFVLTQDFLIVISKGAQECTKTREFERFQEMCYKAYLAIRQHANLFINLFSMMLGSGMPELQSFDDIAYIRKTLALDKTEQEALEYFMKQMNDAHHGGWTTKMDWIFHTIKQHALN
# PROTOCOL: Inhibition of human recombinant PI3Kalpha assessed as PIP3 production by AlphaScreen assay
pIC50: −log10 of the molar value.
OBSERVATION TYPE: pIC50

{"COMPOUND": "Cc1cc(C(C)Nc2ccccc2)c2nc(N3CCOCC3)cc(=O)n2c1 (racemic)", "pIC50": 5.24}

I: Cc1cc([C@@H](C)Nc2ccccc2C(=O)NS(C)(=O)=O)c2nc(N3CCOCC3)cc(=O)n2c1
II: Cc1cc([C@@H](C)Nc2ccccc2C(=O)NO)c2nc(N3CCOCC3)cc(=O)n2c1
Thinking about recorded pIC50 values, which is higher, I or II ? Please indicate the selected item by its label.
I
(I: 6.80, II: 5.54)

----------
# PROTOCOL: Fraction unbound in human plasma after 18 hrs at 37 degC after 18 hrs
# Type: ADME, cell-free
OBSERVATION TYPE: fraction unbound at 18 h

A: Cc1cc([C@@H](C)Nc2ccccc2C(=O)O)c2nc(N3CCOCC3)cc(=O)n2c1
B: C[C@@H](Oc1ccccc1)c1cc(C(=O)N(C)CCO)cn2c(=O)cc(N3CCOCC3)nc12
Among A and B , whose measured fraction unbound at 18 h is the smaller figure? Please indicate the selected item by its label.
A
(A: 0.08, B: 0.26)

----------
# PROTOCOL: Lipophilicity, log D of the compound at pH 7.4 by HPLC method
# Assay type: physicochemical
# MEASUREMENT SETUP: buffer
OBSERVATION TYPE: logD

Some solved entries appear below for comparison.
{"MOLECULE": "CC(Oc1cccc(C#N)c1)c1cc(C(=O)N(C)CCO)cn2c(=O)cc(N3CCOCC3)nc12 (racemic)", "TEST RESULT": 2}
{"MOLECULE": "CC(Oc1ccccc1)c1cc(C(=O)N(C)CCO)cn2c(=O)cc(N3CCOCC3)nc12 (racemic)", "TEST RESULT": 2.3}
{"MOLECULE": "CC(Nc1ccccc1)c1cc(C(=O)N2CCOCC2)cn2c(=O)cc(N3CCOCC3)nc12 (racemic)", "TEST RESULT": 2.7}

P: CC(Oc1ccccc1F)c1cc(C(=O)N(C)CCO)cn2c(=O)cc(N3CCOCC3)nc12 (racemic)
Q: CC(Nc1ccccc1)c1cc(C(=O)N(C)CC(=O)O)cn2c(=O)cc(N3CCOCC3)nc12 (racemic)
Thinking about recorded logD values, which is higher, P or Q ? Please indicate the selected item by its label.
P
(P: 2.3, Q: 0.6)

----------
# PROTOCOL: Apparent permeability across apical to basolateral side of human Caco2 cells at 10 uM at pH 6.5 by LC-tandem MS analysis
# Type: ADME, cell-based
# MEASUREMENT SETUP: Caco-2, pH 6.5
OBSERVATION TYPE: Papp A→B at 10 µM (×10⁻⁶ cm/s)

{"COMPOUND": "Cc1cc([C@@H](C)Nc2ccccc2C(=O)NO)c2nc(N3CCOCC3)cc(=O)n2c1", "Papp A→B at 10 µM / ×10⁻⁶ cm/s": 52}
{"COMPOUND": "Cc1cc(C(C)Nc2ccccc2-c2nnn[nH]2)c2nc(N3CCOCC3)cc(=O)n2c1 (racemic)", "Papp A→B at 10 µM / ×10⁻⁶ cm/s": 0.08}
{"COMPOUND": "CC(Nc1ccccc1)c1cc(C(=O)O)cn2c(=O)cc(N3CCOCC3)nc12 (racemic)", "Papp A→B at 10 µM / ×10⁻⁶ cm/s": 0.04}
{"COMPOUND": "CC(Nc1ccccc1)c1cc(C(=O)N(C)C)cn2c(=O)cc(N3CCOCC3)nc12 (racemic)", "Papp A→B at 10 µM / ×10⁻⁶ cm/s": 35.4}
{"COMPOUND": "CC(Nc1ccccc1)c1cc(C(=O)N(C)CCO)cn2c(=O)cc(N3CCOCC3)nc12 (racemic)", "Papp A→B at 10 µM / ×10⁻⁶ cm/s": 4.3}
{"COMPOUND": "CC(Nc1ccccc1)c1cc(C(=O)N2CCOCC2)cn2c(=O)cc(N3CCOCC3)nc12 (racemic)", "Papp A→B at 10 µM / ×10⁻⁶ cm/s": 26.9}

P: Cc1cc(C(C)Nc2cc(Cl)ccc2C(=O)O)c2nc(N3CCOCC3)cc(=O)n2c1 (racemic)
Q: Cc1cc(C(C)Nc2cccc(C(=O)O)c2)c2nc(N3CCOCC3)cc(=O)n2c1 (racemic)
Among P and Q , whose measured Papp A→B at 10 µM is the smaller figure? Please indicate the selected item by its label.
Q
(Q: 0.9 ×10⁻⁶ cm/s, P: 15 ×10⁻⁶ cm/s)

----------
# PROTOCOL: Clearance in Beagle dog at 1 umol/kg, iv and 2 umol/kg, po
# Assay type: ADME, organism-based, Canis lupus familiaris
# MEASUREMENT SETUP: in vivo
OBSERVATION TYPE: clearance (mL/min/kg)

I: C[C@@H](Oc1ccccc1)c1cc(C(=O)N(C)CCO)cn2c(=O)cc(N3CCOCC3)nc12
II: Cc1cc([C@@H](C)Nc2ccccc2C(=O)O)c2nc(N3CCOCC3)cc(=O)n2c1
Among I and II , whose measured clearance is the smaller figure? Please indicate the selected item by its label.
I
(I: 8 mL/min/kg, II: 17 mL/min/kg)

----------
# PROTOCOL: Lipophilicity, log D of the compound at pH 7.4 by HPLC method
# Assay type: physicochemical
# MEASUREMENT SETUP: buffer
OBSERVATION TYPE: logD

Some solved entries appear below for comparison.
{"COMPOUND": "Cc1cc([C@@H](C)Nc2ccccc2C(=O)O)c2nc(N3CCOCC3)cc(=O)n2c1", "logD": 0.75}
{"COMPOUND": "Cc1cc(C(C)Nc2cc(Cl)ccc2C(=O)O)c2nc(N3CCOCC3)cc(=O)n2c1 (racemic)", "logD": 1.2}
{"COMPOUND": "CC(Nc1ccccc1)c1cc(C(=O)NCCN2CCNCC2)cn2c(=O)cc(N3CCOCC3)nc12 (racemic)", "logD": 1.5}
{"COMPOUND": "Cc1cc(OC(C)c2cc(C(=O)N(C)CCO)cn3c(=O)cc(N4CCOCC4)nc23)ccc1F (racemic)", "logD": 2.9}

A: Cc1cc(C(C)Nc2cccc(C(=O)O)c2)c2nc(N3CCOCC3)cc(=O)n2c1 (racemic)
B: Cc1c(F)cccc1OC(C)c1cc(C(=O)N(C)CCO)cn2c(=O)cc(N3CCOCC3)nc12 (racemic)
C: CC(Nc1ccccc1)c1cc(C(=O)NCCN(C)C)cn2c(=O)cc(N3CCOCC3)nc12 (racemic)
D: Cc1cc([C@@H](C)Nc2ccccc2C(=O)NS(C)(=O)=O)c2nc(N3CCOCC3)cc(=O)n2c1
E: CC(Nc1ccccc1)c1cc(C(=O)O)cn2c(=O)cc(N3CCOCC3)nc12 (racemic)
Parameters: sort_field (logD), sort_dir (desc). Enter labels, ranked according to the request.
B, C, D, E, A
